Hey, just so you know, these numbers are from patent US8563545B2.

- ASSAY: Steady state PK in rat CIA model
- Type: in vivo
- EXPERIMENTAL PARAMETERS: plasma, PO 30 mg/kg/day
Would you kindly list Cmax for each of these compounds?
# output: bare number, implied unit ng/mL

Item "O=C(Nc1nc2cccc(-c3ccc(CN4CCS(=O)(=O)CC4)cc3)n2n1)C1CC1" has what recorded Cmax?
3800

Entry "O=C(Nc1nc2cccc(-c3ccc(CN4CCOCC4)cc3)n2n1)C1CC1" has what Cmax?
2630

* * *

- ASSAY: Steady state PK in rat CIA model
- Type: in vivo
- EXPERIMENTAL PARAMETERS: plasma, PO 30 mg/kg/day, read-out: T½ (converted)
Task for the reader: assign each of the following compounds its reported half-life.
Give the value in h but do not write h after it.

Item under review: "O=C(Nc1nc2cccc(-c3ccc(CN4CCS(=O)(=O)CC4)cc3)n2n1)C1CC1" . Reported half-life?
3.9

What measured half-life goes with "O=C(Nc1nc2cccc(-c3ccc(CN4CCOCC4)cc3)n2n1)C1CC1" ?
3.36
